Target: Gamma-secretase subunit PEN-2 (Homo sapiens, UniProt Q9NZ42)
Sequence (Q9NZ42 whole entry): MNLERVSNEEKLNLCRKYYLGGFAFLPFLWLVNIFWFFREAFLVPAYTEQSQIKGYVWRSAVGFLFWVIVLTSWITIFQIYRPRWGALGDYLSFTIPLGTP
Test: Inhibitory activity against gamma-secretase
parameter: IC50 (nM)
Write it as a number; the unit nM goes unstated.

Recall the reported IC50 of C[C@H](NC(=O)Cc1cc(F)cc(F)c1)C(=O)N[C@@H](Cc1ccccc1)C(=O)OC(C)(C)C on Gamma-secretase subunit PEN-2 (Homo sapiens, UniProt Q9NZ42) and write it down.
50
